Here, each record is paired with measured Mean % WT Binding data.
target: human CD33 Q213A (human, UniProt P20138 18-364); experiment: alanine scan, flow cytometry, HEK293-T;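 further: antibody binding to each alanine-substituted CD33 mutant expressed transiently in HEK293-T, read as fluorescence minus background, mean of duplicates, relative to wild-type CD33 set as 100%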
Sequence (P20138 18-364 Q213A limits assumed): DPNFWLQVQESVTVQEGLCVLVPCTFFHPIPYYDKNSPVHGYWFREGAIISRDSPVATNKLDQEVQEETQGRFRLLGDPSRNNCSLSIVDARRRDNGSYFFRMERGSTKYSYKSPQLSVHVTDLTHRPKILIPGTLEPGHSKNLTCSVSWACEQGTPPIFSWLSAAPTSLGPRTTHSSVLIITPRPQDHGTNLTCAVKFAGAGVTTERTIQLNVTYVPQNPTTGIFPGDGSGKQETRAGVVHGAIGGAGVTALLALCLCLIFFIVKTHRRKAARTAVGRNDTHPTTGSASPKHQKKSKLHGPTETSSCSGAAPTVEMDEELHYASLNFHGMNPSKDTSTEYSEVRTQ
All answers are understood in %, so give the number only.

Sample records with Mean % WT Binding:
Refmab #1 (antibody, V domains shown, In the alanine scan antibodies were used as IgG or Fab; also called hP67.6) VH: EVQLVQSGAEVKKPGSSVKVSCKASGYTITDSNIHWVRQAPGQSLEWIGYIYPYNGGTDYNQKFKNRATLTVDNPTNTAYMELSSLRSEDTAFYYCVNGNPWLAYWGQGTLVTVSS VL: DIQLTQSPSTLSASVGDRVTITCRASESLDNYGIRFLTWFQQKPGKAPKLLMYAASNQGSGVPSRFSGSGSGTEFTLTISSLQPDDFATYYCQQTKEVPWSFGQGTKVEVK :: 95.3
Refmab #2 (antibody, V domains shown, In the alanine scan antibodies were used as IgG or Fab) VH: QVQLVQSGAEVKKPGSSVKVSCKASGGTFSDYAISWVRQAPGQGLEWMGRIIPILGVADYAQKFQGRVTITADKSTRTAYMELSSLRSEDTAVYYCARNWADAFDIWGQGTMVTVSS VL: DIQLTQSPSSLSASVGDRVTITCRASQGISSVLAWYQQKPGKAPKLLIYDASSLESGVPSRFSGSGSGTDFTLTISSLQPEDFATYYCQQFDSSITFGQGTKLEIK :: 115
Refmab #3 (antibody, V domains shown, In the alanine scan antibodies were used as IgG or Fab) VH: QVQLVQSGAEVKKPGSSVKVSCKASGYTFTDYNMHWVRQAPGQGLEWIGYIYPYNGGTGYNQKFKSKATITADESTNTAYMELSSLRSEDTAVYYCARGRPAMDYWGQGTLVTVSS VL: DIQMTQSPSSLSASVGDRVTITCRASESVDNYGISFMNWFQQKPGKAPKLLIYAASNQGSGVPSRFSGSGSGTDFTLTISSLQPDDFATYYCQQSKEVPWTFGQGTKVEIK :: 135

Let us move to another entry and its Mean % WT Binding.
## Input # input binder: Refmab #4 (antibody, V domains shown, In the alanine scan antibodies were used as IgG or Fab) VH: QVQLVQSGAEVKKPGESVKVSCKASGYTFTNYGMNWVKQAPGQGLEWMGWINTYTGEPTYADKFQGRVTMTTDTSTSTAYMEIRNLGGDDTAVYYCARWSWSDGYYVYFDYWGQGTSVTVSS VL: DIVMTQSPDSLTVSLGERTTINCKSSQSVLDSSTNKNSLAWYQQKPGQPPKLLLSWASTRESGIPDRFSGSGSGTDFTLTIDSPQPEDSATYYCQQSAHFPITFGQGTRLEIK ; wanted: its Mean % WT Binding
## Output 103
